System: HARA
Assay: relative viability (nuclei count vs DMSO), 5 days (fraction); higher = more cells survive
Settings: first compound 2.53 µM
readout_label: relative viability
Format: numeric value only, no unit, no commentary.

Worked examples follow.
CCCCCCCCCCCC1=C(O)C(=O)C=C(O)C1=O [Embelin] + Cc1cc(Nc2cc(N3CCN(C)CC3)nc(Sc3ccc(NC(=O)C4CC4)cc3)n2)n[nH]1 [Tozasertib] (partner 0.1 µM); 0.119
CCCCCCCCCCCC1=C(O)C(=O)C=C(O)C1=O [Embelin] + CC(C)C[C@H](NC(=O)[C@H](Cc1ccccc1)NC(=O)c1cnccn1)B(O)O [Bortezomib] (partner 0.002 µM); 1.13

Kindly consider the entry below.
Consider the molecule CCCCCCCCCCCC1=C(O)C(=O)C=C(O)C1=O [Embelin] + C[C@]1(O)C[C@@H](c2nc(-c3ccc4ccc(-c5ccccc5)nc4c3)c3c(N)nccn32)C1 [Linsitinib] (partner 1 µM) and give its recorded relative viability. 0.996

----------
Tested on: LU99A
Assay: relative viability (nuclei count vs DMSO), 5 days (fraction); higher = more cells survive
Conditions: first compound 4 µM
# relative viability values compiled below
Form field (numeric): enter value without unit.

Please review the entries below; each comes with its answer.
COc1cc(N2CCC(C(N)=O)CC2)ccc1Nc1nc(N)c(Cl)c(Nc2ccccc2S(=O)(=O)C(C)C)n1 [HG-5-88-01] + CC1(C)CCC(c2ccc(Cl)cc2)=C(CN2CCN(c3ccc(C(=O)NS(=O)(=O)c4ccc(N[C@H](CCN5CCOCC5)CSc5ccccc5)c(S(=O)(=O)C(F)(F)F)c4)cc3)CC2)C1 [Navitoclax] (partner 0.5 µM); 0.996
Clc1ccc(Nc2nnc(Cc3ccncc3)c3ccccc23)cc1 [Vatalanib] + Cc1nc(Nc2ncc(C(=O)Nc3c(C)cccc3Cl)s2)cc(N2CCN(CCO)CC2)n1 [Dasatinib] (partner 0.075 µM); 0.583

Would you kindly look at the next entry?
Read off the recorded relative viability for Clc1ccc(Nc2nnc(Cc3ccncc3)c3ccccc23)cc1 [Vatalanib] + COc1cc2c(Oc3ccc(NC(=O)C4(C(=O)Nc5ccc(F)cc5)CC4)cc3F)ccnc2cc1OCCCN1CCOCC1 [Foretinib] (partner 0.25 µM) 0.848

----------
As shown below, each of these molecules has a reported relative viability value.
System: NCI-H3122
Assay: relative viability (nuclei count vs DMSO), 5 days (fraction); higher = more cells survive
Settings: first compound 1.265 µM
// print number alone

Clc1ccc(Nc2nnc(Cc3ccncc3)c3ccccc23)cc1 [Vatalanib] + CC(=O)c1c(C)c2cnc(Nc3ccc(N4CCNCC4)cn3)nc2n(C2CCCC2)c1=O [Palbociclib] (partner 0.5 µM); 0.237
COc1cc(N2CCC(C(N)=O)CC2)ccc1Nc1nc(N)c(Cl)c(Nc2ccccc2S(=O)(=O)C(C)C)n1 [HG-5-88-01] + Nc1nc2[nH]cc(CCc3ccc(C(=O)N[C@@H](CCC(=O)O)C(=O)O)cc3)c2c(=O)[nH]1 [Pemetrexed] (partner 0.2 µM); 0.157
COc1cc(N2CCC(C(N)=O)CC2)ccc1Nc1nc(N)c(Cl)c(Nc2ccccc2S(=O)(=O)C(C)C)n1 [HG-5-88-01] + C[C@@H](Oc1cc(-c2cnn(C3CCNCC3)c2)cnc1N)c1c(Cl)ccc(F)c1Cl [Crizotinib] (partner 1 µM); 0.233
COc1cc(N2CCC(C(N)=O)CC2)ccc1Nc1nc(N)c(Cl)c(Nc2ccccc2S(=O)(=O)C(C)C)n1 [HG-5-88-01] + Cc1nc(NC(=O)N2CCC[C@H]2C(N)=O)sc1-c1ccnc(C(C)(C)C(F)(F)F)c1 [Alpelisib] (partner 2 µM); 0.195
COc1cc(N2CCC(C(N)=O)CC2)ccc1Nc1nc(N)c(Cl)c(Nc2ccccc2S(=O)(=O)C(C)C)n1 [HG-5-88-01] + CS(=O)(=O)CCNCc1ccc(-c2ccc3ncnc(Nc4ccc(OCc5cccc(F)c5)c(Cl)c4)c3c2)o1 [Lapatinib] (partner 2 µM); 0.221
COc1cc(N2CCC(C(N)=O)CC2)ccc1Nc1nc(N)c(Cl)c(Nc2ccccc2S(=O)(=O)C(C)C)n1 [HG-5-88-01] + NC(=O)Nc1cc(-c2cccc(F)c2)sc1C(=O)N[C@H]1CCCNC1 [AZD7762] (partner 0.2 µM); 0.24

Provide only the value of recorded relative viability for Clc1ccc(Nc2nnc(Cc3ccncc3)c3ccccc23)cc1 [Vatalanib] + CS(=O)(=O)CCNCc1ccc(-c2ccc3ncnc(Nc4ccc(OCc5cccc(F)c5)c(Cl)c4)c3c2)o1 [Lapatinib] (partner 2 µM) 0.977

Provide only the value of recorded relative viability for Clc1ccc(Nc2nnc(Cc3ccncc3)c3ccccc23)cc1 [Vatalanib] + C[C@]1(O)C[C@@H](c2nc(-c3ccc4ccc(-c5ccccc5)nc4c3)c3c(N)nccn32)C1 [Linsitinib] (partner 1 µM) 1.02

Values were extracted from the supplement of paper PMC10307832.
